# TARGET_OR_TEST_SYSTEM: CLK3 (human) (UniProt P49761)
# Sequence (P49761 whole entry, looked up): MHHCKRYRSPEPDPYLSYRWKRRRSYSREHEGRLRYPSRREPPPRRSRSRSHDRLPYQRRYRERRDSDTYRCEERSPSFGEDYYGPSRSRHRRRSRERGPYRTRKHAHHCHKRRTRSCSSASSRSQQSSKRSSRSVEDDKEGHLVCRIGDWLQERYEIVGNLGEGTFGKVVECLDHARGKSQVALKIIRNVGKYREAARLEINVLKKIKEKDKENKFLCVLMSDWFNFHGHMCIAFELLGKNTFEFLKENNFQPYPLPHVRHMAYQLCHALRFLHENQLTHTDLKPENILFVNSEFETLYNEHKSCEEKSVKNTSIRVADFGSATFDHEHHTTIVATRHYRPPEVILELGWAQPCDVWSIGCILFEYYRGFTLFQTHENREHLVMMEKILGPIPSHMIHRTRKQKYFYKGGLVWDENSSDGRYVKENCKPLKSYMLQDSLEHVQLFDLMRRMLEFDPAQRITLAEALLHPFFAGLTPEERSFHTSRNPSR
# PROCEDURE_SUMMARY: KINOMEscan competition binding
# APPLIED_CONDITIONS: compound 10.0 µM
Catalogue of kinase still bound, per cent of control readings, one per entry.
Report as a plain number; the unit % is understood.

// query Reported kinase still bound, per cent of control, compound `O=C(Nc1cccc(Nc2ncc(Br)c(NCCc3cnc[nH]3)n2)c1)N1CCCC1` : ____
// result 74

// query Any idea what kinase still bound, per cent of control was measured for `NC(=O)Nc1cc(-c2cccc(F)c2)sc1C(=O)N[C@@H]1CCCNC1` ?
// result 62

====

# TARGET_OR_TEST_SYSTEM: ACVRL1 (human)
# PROCEDURE_SUMMARY: KINOMEscan competition binding
# APPLIED_CONDITIONS: compound 10.0 µM
Items are presented alongside their recorded kinase still bound, per cent of control.
Quick reminder: number only, in %, skip the unit.

Some solved cases for reference:
| MOLECULE | kinase still bound, per cent of control / % |
| --- | --- |
| O=C(Nc1cccc(Nc2ncc(Br)c(NCCc3cnc[nH]3)n2)c1)N1CCCC1 | 100 |
| C[C@@H](Oc1cc(-c2cnn(C3CCNCC3)c2)cnc1N)c1c(Cl)ccc(F)c1Cl | 45 |
| CNC(=O)c1ccc(Nc2cc(Nc3ccccc3S(=O)(=O)C(C)C)c3cc[nH]c3n2)nc1 | 100 |
| CNC(=O)c1cc(Oc2ccc(NC(=O)Nc3ccc(Cl)c(C(F)(F)F)c3)cc2)ccn1 | 77 |

Now consider the entry below.
// query Which kinase still bound, per cent of control value belongs to `COc1cc(N2CCN(C)CC2)ccc1Nc1ncc2c(n1)N(C)c1ccccc1C(=O)N2C` ?
// result 100

====

# TARGET_OR_TEST_SYSTEM: UniProt Q9P1W9
# Sequence (Q9P1W9 whole entry, looked up): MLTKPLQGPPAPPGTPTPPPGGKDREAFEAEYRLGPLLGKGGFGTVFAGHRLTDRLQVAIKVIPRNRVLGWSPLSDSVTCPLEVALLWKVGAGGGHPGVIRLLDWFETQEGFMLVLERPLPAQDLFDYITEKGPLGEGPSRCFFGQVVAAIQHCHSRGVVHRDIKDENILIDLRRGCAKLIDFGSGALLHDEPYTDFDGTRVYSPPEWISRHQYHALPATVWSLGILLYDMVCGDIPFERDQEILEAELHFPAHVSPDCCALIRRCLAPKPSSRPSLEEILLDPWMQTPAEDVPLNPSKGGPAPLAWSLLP
# PROCEDURE_SUMMARY: KINOMEscan competition binding
# APPLIED_CONDITIONS: compound 10.0 µM
Recorded kinase still bound, per cent of control by entry
Write down the numeric answer in % and omit the unit.

Some compounds with recorded kinase still bound, per cent of control:
| MOLECULE | TARGET_OR_TEST_SYSTEM | EXPERIMENTAL_RESULT |
| --- | --- | --- |
| CS(=O)(=O)N1CCN(Cc2cc3nc(-c4cccc5[nH]ncc45)nc(N4CCOCC4)c3s2)CC1 | UniProt Q9P1W9 | 100 |
| CCN(CC)CCCCNc1ncc2c(n1)N(C)C(=O)N(c1c(Cl)c(OC)cc(OC)c1Cl)C2 | UniProt Q9P1W9 | 100 |
| O=c1cc(N2CCOCC2)oc2c(-c3cccc4c3sc3ccccc34)cccc12 | UniProt Q9P1W9 | 84 |
| CN(C)C/C=C/C(=O)Nc1ccc(C(=O)Nc2cccc(Nc3nccc(-c4cccnc4)n3)c2)cc1 | UniProt Q9P1W9 | 100 |
| COc1ccc(N(C(=O)Oc2c(C)cccc2C)c2ccnc(Nc3ccc(N4CCN(C)CC4)cc3)n2)c(OC)c1 | UniProt Q9P1W9 | 100 |
| CCN1CCN(C(=O)Cc2ccc(Nc3ncc(F)c(Nc4ccc(C(=O)Nc5ccccc5Cl)cc4)n3)cc2)CC1 | UniProt Q9P1W9 | 100 |
| COc1cc2ncn(-c3cc(OCc4ccccc4C(F)(F)F)c(C(N)=O)s3)c2cc1OC | UniProt Q9P1W9 | 100 |
| CNC(=O)c1ccc(Nc2cc(Nc3ccccc3S(=O)(=O)C(C)C)c3cc[nH]c3n2)nc1 | UniProt Q9P1W9 | 100 |
| C[C@@H](Oc1cc(-c2cnn(C3CCNCC3)c2)cnc1N)c1c(Cl)ccc(F)c1Cl | UniProt Q9P1W9 | 100 |
| COc1cc2ncnc(-n3nc(-c4ccccn4)nc3N)c2cc1OC | UniProt Q9P1W9 | 78 |

// query // lookup kinase still bound, per cent of control | system=UniProt Q9P1W9 | key= `O=C(Nc1cccc(Nc2ncc(Br)c(NCCc3cnc[nH]3)n2)c1)N1CCCC1`
// result 100

// query # returns recorded kinase still bound, per cent of control (system: UniProt Q9P1W9) for `COCC(=O)NC/C=C/c1ccc2ncnc(Nc3ccc(Oc4ccc(C)nc4)c(C)c3)c2c1`
// result 100

// query Request: kinase still bound, per cent of control, test system UniProt Q9P1W9, entry `CCN(CC)CCCCNc1ncc2cc(-c3cc(OC)cc(OC)c3)c(NC(=O)NC(C)(C)C)nc2n1`
// result 100

====

# TARGET_OR_TEST_SYSTEM: UniProt:P17612
# PROCEDURE_SUMMARY: KINOMEscan competition binding
# APPLIED_CONDITIONS: compound 10.0 µM
Reported kinase still bound, per cent of control is given for each of the following molecules.
Lab book: enter the figure in %, no units written.

| MOLECULE | kinase still bound, per cent of control, % |
| --- | --- |
| CS(=O)(=O)N1CCN(Cc2cc3nc(-c4cccc5[nH]ncc45)nc(N4CCOCC4)c3s2)CC1 | 100 |

// query Tell me the measured kinase still bound, per cent of control of `CCN1CCN(C(=O)Cc2ccc(Nc3ncc(F)c(Nc4ccc(C(=O)Nc5ccccc5Cl)cc4)n3)cc2)CC1` , please.
// result 42

// query What kinase still bound, per cent of control value was documented for this molecule, `CCN(CC)CCCCNc1ncc2cc(-c3cc(OC)cc(OC)c3)c(NC(=O)NC(C)(C)C)nc2n1` ?
// result 100

// query Which kinase still bound, per cent of control is listed for `COCC(=O)NC/C=C/c1ccc2ncnc(Nc3ccc(Oc4ccc(C)nc4)c(C)c3)c2c1` ?
// result 100

// query May I ask what kinase still bound, per cent of control has been recorded for `COc1cc2ncn(-c3cc(OCc4ccccc4C(F)(F)F)c(C(N)=O)s3)c2cc1OC` ?
// result 100

// query I'd like to know its kinase still bound, per cent of control. The molecule in question is `CN(C)C/C=C/C(=O)Nc1ccc(C(=O)Nc2cccc(Nc3nccc(-c4cccnc4)n3)c2)cc1`
// result 100

// query Report kinase still bound, per cent of control for `O=C(Nc1cccc(Nc2ncc(Br)c(NCCc3cnc[nH]3)n2)c1)N1CCCC1` please.
// result 0.95

// query Field request: kinase still bound, per cent of control | item: `COc1cc(C(=O)N2CCC(N3CCN(C)CC3)CC2)ccc1Nc1ncc2c(n1)N(C)c1ccccc1C(=O)N2C`
// result 100

// query Requested read-out: kinase still bound, per cent of control. Entry: `COc1cc(N2CCN(C)CC2)ccc1Nc1ncc2c(n1)N(C)c1ccccc1C(=O)N2C`
// result 100

====

# TARGET_OR_TEST_SYSTEM: RPS6KA2 KD2 (human) (UniProt Q15349)
# Sequence (Q15349 whole entry, looked up): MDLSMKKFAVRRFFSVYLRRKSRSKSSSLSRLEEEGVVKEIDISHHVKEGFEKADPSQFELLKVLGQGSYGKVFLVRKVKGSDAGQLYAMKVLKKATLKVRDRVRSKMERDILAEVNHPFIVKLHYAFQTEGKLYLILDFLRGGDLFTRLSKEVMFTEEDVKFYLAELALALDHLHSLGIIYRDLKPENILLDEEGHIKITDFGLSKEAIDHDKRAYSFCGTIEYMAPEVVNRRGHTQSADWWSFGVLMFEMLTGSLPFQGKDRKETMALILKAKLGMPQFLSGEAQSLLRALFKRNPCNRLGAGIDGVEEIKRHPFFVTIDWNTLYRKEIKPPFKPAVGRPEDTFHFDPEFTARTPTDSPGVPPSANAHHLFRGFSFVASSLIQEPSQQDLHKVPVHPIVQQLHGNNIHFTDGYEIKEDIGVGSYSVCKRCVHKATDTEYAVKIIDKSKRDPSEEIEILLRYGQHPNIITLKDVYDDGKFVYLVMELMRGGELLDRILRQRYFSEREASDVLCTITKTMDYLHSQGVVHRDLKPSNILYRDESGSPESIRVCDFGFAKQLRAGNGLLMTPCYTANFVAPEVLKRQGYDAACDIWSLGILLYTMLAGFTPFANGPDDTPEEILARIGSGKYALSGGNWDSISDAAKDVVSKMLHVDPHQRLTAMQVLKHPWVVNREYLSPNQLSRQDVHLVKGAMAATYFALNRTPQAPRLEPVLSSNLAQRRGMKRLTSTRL
# PROCEDURE_SUMMARY: KINOMEscan competition binding
# APPLIED_CONDITIONS: compound 10.0 µM
Note to self: kinase still bound, per cent of control under 80% means t, ties and anything higher get f.

Check out these entries, answers already filled in.
| MOLECULE | TARGET_OR_TEST_SYSTEM | CLASSIFICATION |
| --- | --- | --- |
| COc1cc2ncn(-c3cc(OCc4ccccc4C(F)(F)F)c(C(N)=O)s3)c2cc1OC | RPS6KA2 KD2 (human) (UniProt Q15349) | t |
| O=C1NC(=O)/C(=C/c2ccc3nccc(-c4ccncc4)c3c2)S1 | RPS6KA2 KD2 (human) (UniProt Q15349) | t |
| O=C(Nc1cccc(Nc2ncc(Br)c(NCCc3cnc[nH]3)n2)c1)N1CCCC1 | RPS6KA2 KD2 (human) (UniProt Q15349) | t |
| CNC(=O)c1ccc(Nc2cc(Nc3ccccc3S(=O)(=O)C(C)C)c3cc[nH]c3n2)nc1 | RPS6KA2 KD2 (human) (UniProt Q15349) | f |
| COc1cc2ncnc(-n3nc(-c4ccccn4)nc3N)c2cc1OC | RPS6KA2 KD2 (human) (UniProt Q15349) | t |
| CCN(CC)CCCCNc1ncc2c(n1)N(C)C(=O)N(c1c(Cl)c(OC)cc(OC)c1Cl)C2 | RPS6KA2 KD2 (human) (UniProt Q15349) | f |
| CCN(CC)CCCCNc1ncc2cc(-c3cc(OC)cc(OC)c3)c(NC(=O)NC(C)(C)C)nc2n1 | RPS6KA2 KD2 (human) (UniProt Q15349) | f |

Now consider a different molecule.
// query Is kinase still bound, per cent of control of `N#CCNC(=O)c1ccc(-c2ccnc(Nc3ccc(N4CCOCC4)cc3)n2)cc1` strictly below 80%?
// result t

====

# Test system: KIT (human), P10721 [V559D/V654A]
# Sequence (P10721 whole entry V559D/V654A, looked up): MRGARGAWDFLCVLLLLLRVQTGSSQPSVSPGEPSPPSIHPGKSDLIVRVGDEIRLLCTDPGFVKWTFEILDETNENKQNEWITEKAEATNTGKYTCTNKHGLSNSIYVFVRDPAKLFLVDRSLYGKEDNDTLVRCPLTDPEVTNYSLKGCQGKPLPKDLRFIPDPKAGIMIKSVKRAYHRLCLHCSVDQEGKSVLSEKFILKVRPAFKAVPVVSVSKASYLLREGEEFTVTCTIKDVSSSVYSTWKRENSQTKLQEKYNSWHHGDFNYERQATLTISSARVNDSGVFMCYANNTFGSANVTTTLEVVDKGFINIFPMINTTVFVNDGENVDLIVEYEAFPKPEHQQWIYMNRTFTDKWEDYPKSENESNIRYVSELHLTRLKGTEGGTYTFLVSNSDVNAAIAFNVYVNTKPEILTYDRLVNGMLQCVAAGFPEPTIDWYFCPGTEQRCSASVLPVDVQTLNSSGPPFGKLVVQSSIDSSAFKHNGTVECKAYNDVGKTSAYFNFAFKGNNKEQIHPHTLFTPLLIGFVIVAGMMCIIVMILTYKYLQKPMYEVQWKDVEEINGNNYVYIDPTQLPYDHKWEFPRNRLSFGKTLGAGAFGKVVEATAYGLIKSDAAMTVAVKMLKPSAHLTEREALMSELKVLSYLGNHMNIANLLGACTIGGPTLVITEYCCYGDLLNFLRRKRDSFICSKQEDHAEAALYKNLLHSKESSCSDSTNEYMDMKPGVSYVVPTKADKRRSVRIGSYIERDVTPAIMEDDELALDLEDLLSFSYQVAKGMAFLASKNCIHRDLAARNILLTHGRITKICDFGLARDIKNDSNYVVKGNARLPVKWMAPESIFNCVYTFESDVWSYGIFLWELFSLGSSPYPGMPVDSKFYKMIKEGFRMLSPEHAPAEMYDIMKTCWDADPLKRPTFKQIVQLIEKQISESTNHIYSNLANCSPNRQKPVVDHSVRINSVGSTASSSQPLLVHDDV
# PROCEDURE_SUMMARY: KINOMEscan competition binding
# APPLIED_CONDITIONS: compound 10.0 µM
QUANTITY: kinase still bound, per cent of control (%)
Use % as the unit, but write only the number.

Sample records with kinase still bound, per cent of control:
| MOLECULE | VALUE_UNITS | kinase still bound, per cent of control |
| --- | --- | --- |
| C=CC(=O)Nc1cccc(Nc2nc(N[C@H]3CC[C@H](N(C)C)CC3)nc3c2ncn3C(C)C)c1 | % | 44 |
| Cc1cc([C@@H](C)Nc2ccccc2C(=O)O)c2nc(N3CCOCC3)cc(=O)n2c1 | % | 96 |
| COc1cc(N2CCN(C)CC2)ccc1Nc1nc(N)c(C(=O)c2c(Cl)cccc2Cl)s1 | % | 94 |

// query Hi! What's the reported kinase still bound, per cent of control for `C=CC(=O)Nc1ccc(CN(C(=O)Nc2c(Cl)c(OC)cc(OC)c2Cl)c2cc(Nc3ccc(N4CCN(C)CC4)cc3)ncn2)cc1` on KIT (human), P10721 [V559D/V654A]?
// result 100

// query What is its kinase still bound, per cent of control for KIT (human), P10721 [V559D/V654A]? Entry: `N#Cc1c(NC(=O)c2cccc3ccccc23)sc2c1CCCC2`
// result 100

// query Under KIT (human), P10721 [V559D/V654A]: kinase still bound, per cent of control value of `CN(C)C/C=C/C(=O)Nc1ccc(C(=O)Nc2cccc(Nc3nccc(-c4cccnc4)n3)c2)cc1` ?
// result 56

// query Request - read-out kinase still bound, per cent of control | tested on KIT (human), P10721 [V559D/V654A] | compound `CCCS(=O)(=O)Nc1ccc(F)c(C(=O)c2c[nH]c3ncc(Cl)cc23)c1F`
// result 19

// query Give recorded kinase still bound, per cent of control with KIT (human), P10721 [V559D/V654A] for the following compound: `COc1cc(C(=O)N2CCC(N3CCN(C)CC3)CC2)ccc1Nc1ncc2c(n1)N(C)c1ccccc1C(=O)N2C`
// result 100

// query Which measured kinase still bound, per cent of control belongs to `COc1ccc(N(C(=O)Oc2c(C)cccc2C)c2ccnc(Nc3ccc(N4CCN(C)CC4)cc3)n2)c(OC)c1` , tested on KIT (human), P10721 [V559D/V654A]?
// result 85

Source of measurements: the kinase profiling compilation of Christmann-Franck et al. (2016)
